Test system: PRMT1 (protein arginine N-methyltransferase 1)
protocolDetails: PRMT1 binders on small-molecule microarrays, primary screen, biochemical, small-molecule microarray, 635 nm fluorescence (AID 1088)
conditions: small-molecule microarray binding, higher = more signal

{"compound": "C=C(COC)C(=O)CC[C@@H](OC(=O)c1cccnc1)c1cccc(OCCO)c1", "composite z-score": 1.37}
{"compound": "C[C@]1(C(=O)NCC(F)(F)F)c2ccccc2C(=O)N(Cc2ccc(OC(F)(F)F)cc2)[C@H]1c1ccc(CO)cc1", "composite z-score": 0.64}
{"compound": "Cc1ccc(S[C@]2(C(=O)NC3CC3)CC(=O)N(Cc3cc(C(F)(F)F)cc(C(F)(F)F)c3)[C@@H]2c2ccc(CO)cc2I)cc1", "composite z-score": 1.28}
{"compound": "COc1ccc(C#Cc2ccc3c(c2)[C@]2(C(=O)N3)[C@H](c3ccc(OCCO)cc3)N3[C@H](c4ccccc4)[C@H](c4ccccc4)OC(=O)[C@H]3[C@@H]2C(=O)O)cc1", "composite z-score": 1.54}
{"compound": "CN(C)CCCC[C@@H]1NC(=O)[C@H]2C[C@@H](C(=O)O)[C@@H](c3cccc(OCCO)c3)N2C1=O", "composite z-score": 1.4}
{"compound": "CO[C@H]1O[C@H](CO)[C@@H](OC(=O)Nc2ccccc2)[C@@H]2OC(=O)[C@H](Cc3ccccc3)C/C=C/C[C@@H](Cc3ccccc3)C(=O)O[C@@H]12", "composite z-score": 1.55}
{"compound": "CCCCN1CC=CC23O[C@@H]4C=CCOC(=O)[C@@H]4[C@H]2C(=O)N(CCO)[C@@H]3C1=O (some centres undefined)", "composite z-score": -0.757}
{"compound": "CN(C)CCCNC(=O)[C@@H]1c2ccccc2C(=O)N(C2Cc3ccccc3C2)[C@H]1c1ccc(CO)cc1", "composite z-score": 1.56}
{"compound": "COc1cc(OC)c(C(O)C2C=CC3C(=O)N(c4ccccc4)C(=O)C3N2Nc2ccccc2F)cc1Br (centres undefined)", "composite z-score": 1.58}
{"compound": "C=CCNC(=O)[C@H]1[C@@H]2C(=O)O[C@@H](c3ccccc3)[C@@H](c3ccccc3)N2[C@@H](c2ccccc2OCCO)[C@]12C(=O)N(C(=O)OCCOC)c1ccccc12", "composite z-score": 1.51}
{"compound": "O=C1OCCC=C[C@H]2OC34C=CCN(c5ccc(Cl)cc5)C(=O)[C@H]3N(CCO)C(=O)[C@@H]4C12 (some centres undefined)", "composite z-score": -0.502}
{"compound": "COc1ccc(C(O)C2C=CC3C(=O)N(C)C(=O)C3N2Nc2ccc([N+](=O)[O-])cc2[N+](=O)[O-])cc1OCc1ccccc1 (centres undefined)", "composite z-score": 1.35}
{"compound": "CO[C@H]1O[C@H](CO)[C@@H](OC(=O)Nc2ccc(C(F)(F)F)cc2)[C@H](OC(=O)Nc2ccccc2-c2ccccc2)[C@@H]1OC(=O)Nc1ccccc1-c1ccccc1", "composite z-score": 1.54}
{"compound": "COCCOC(=O)N1C(=O)[C@@]2(c3cc(C#CCC(C(=O)OC)C(=O)OC)ccc31)[C@H](C(=O)N1CCc3cc(OC)c(OC)cc3C1)[C@H]1C(=O)O[C@H](c3ccccc3)[C@H](c3ccccc3)N1[C@@H]2c1ccc(O)cc1", "composite z-score": 1.54}

Attribution: PubChem BioAssay
